TARGET_OF_ASSAY: T1, anionic trypsin (Homo sapiens, UniProt P07478)
T1 chain: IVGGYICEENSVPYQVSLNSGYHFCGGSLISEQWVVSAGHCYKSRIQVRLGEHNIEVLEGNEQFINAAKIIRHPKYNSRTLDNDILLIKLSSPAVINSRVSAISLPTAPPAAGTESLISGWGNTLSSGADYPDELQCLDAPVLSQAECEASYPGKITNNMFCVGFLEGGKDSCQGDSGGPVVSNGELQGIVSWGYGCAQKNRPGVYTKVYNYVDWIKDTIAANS
PROTOCOL: enzyme inhibition
pKi: −log10 of the molar value.
MEASURE: pKi

[
  {
    "BINDER": "APPI Kunitz domain (protein) VREVCSEQAETGPCRAMISRWYFDVTEGKCAPFFYGGCGGNRNNFDTEEYCMAVCGSA",
    "OBSERVED_VALUE": 11.76
  }
]
